Just for reference, patent US6479487B1 is where these values come from.

Tested on: A549
Procedure summary: In vitro tumor cell proliferation, A549
Format: cell-based, human
Condition label: Homo sapiens, A549, A549; many values given with an undefined *; read-out: In vitro Tumor Cell Proliferation (IC50, μM) Lung A549
Counter-ions that a name gives are not always drawn.
Metric name: IC50 (µM)

Below, each entry is followed by its recorded IC50 result.
INSERT INTO assay_data (compound, unit_text, quantitative_result) VALUES
  ('N[C@H]1CC[C@H](Nc2nc(NC3CCN(Cc4ccc(F)c(F)c4)CC3)c3ncn(C4CCCC4)c3n2)CC1 [Example 147-u, trihydrochloride]', 'µM', 0.27),
  ('N[C@H]1CC[C@H](Nc2nc(NNc3ccccc3F)c3ncn(C4CCCC4)c3n2)CC1 [Example 11, dihydrochloride]', 'µM', 4.5),
  ('N[C@H]1CC[C@H](Nc2nc(NC3CCN(Cc4cccc(C(F)(F)F)c4)CC3)c3ncn(C4CCCC4)c3n2)CC1 [Example 147-m, trihydrochloride]', 'µM', 0.17);

I = N[C@H]1CC[C@H](Nc2nc(NC3CCN(Cc4ccccc4Cl)CC3)c3ncn(C4CCCC4)c3n2)CC1
II = N[C@H]1CC[C@H](Nc2nc(NC3CCN(Cc4cccc(Oc5ccccc5)c4)CC3)c3ncn(C4CCCC4)c3n2)CC1 [Example 147-ad, trihydrochloride]
III = COc1ccc(CNc2nc(N[C@H]3CC[C@H](N)CC3)nc3c2ncn3C2CCCC2)cc1 [Example 8, dihydrochloride]
// ascending sort on recorded IC50 // respond by listing labels in the order requested
I, II, III

---

Tested on: HT-29
Procedure summary: In vitro tumor cell proliferation, HT-29
Type: cell-based, human
Condition label: HT-29; many values given with an undefined *; dihydrochloride; read-out: In vitro Tumor Cell Proliferation (IC50, μM) Colon HT-29
Counter-ions that a name gives are not always drawn.
Metric name: IC50 (µM)

INSERT INTO assay_data (compound, unit_text, quantitative_result) VALUES
  ('N[C@H]1CC[C@H](Nc2nc(NNc3ccccc3F)c3ncn(C4CCCC4)c3n2)CC1 [Example 11, dihydrochloride]', 'µM', 7.8),
  ('N[C@H]1CC[C@H](Nc2nc(NC3(CO)CCCC3)c3ncn(C4CCCC4)c3n2)CC1 [Example 146, dihydrochloride]', 'µM', 11);

P = N[C@H]1CC[C@H](Nc2nc(N[C@H]3CC[C@H](O)CC3)c3ncn(C4CCCC4)c3n2)CC1 [Example 145a, dihydrochloride]
Q = N[C@H]1CC[C@H](Nc2nc(Nc3ccccc3)c3ncn(C4CCCC4)c3n2)CC1 [Example 32, dihydrochloride]
R = COCCCNc1nc(N[C@H]2CC[C@H](N)CC2)nc2c1ncn2C1CCCC1 [Example 22, dihydrochloride]
Order these by IC50, descending, and give the full ranking. Give the labels in the order requested.
R, P, Q

I = COc1ccc2[nH]cc(CCNc3nc(N[C@H]4CC[C@H](N)CC4)nc4c3ncn4C3CCCC3)c2c1 [Example 9, dihydrochloride]
II = N[C@H]1CC[C@H](Nc2nc(NCc3ccccc3C(F)(F)F)c3ncn(C4CCCC4)c3n2)CC1 [Example 25, dihydrochloride]
Could you tell me which of these two has the smaller IC50 figure? First: I Second: II State your choice using its label.
I

1 = N[C@H]1CC[C@H](Nc2nc(Nc3ccc(OC(F)(F)F)cc3)c3ncn(C4CCCC4)c3n2)CC1 [Example 5, dihydrochloride]
2 = COc1ccc(CNc2nc(N[C@H]3CC[C@H](N)CC3)nc3c2ncn3C2CCCC2)cc1OC [Example 34, dihydrochloride]
// compare measured IC50 between 1 and 2 ; output the lower one Identify your selection by its label.
1
(1: 1.1 µM, 2: 6 µM)

a = N[C@H]1CC[C@H](Nc2nc(NCC3CCC(CO)CC3)c3ncn(C4CCCC4)c3n2)CC1 (some centres unmarked) [Example 10, dihydrochloride]
b = N[C@H]1CC[C@H](Nc2nc(NCCOCCO)c3ncn(C4CCCC4)c3n2)CC1 [Example 26, dihydrochloride]
Could you check which of a and b has a smaller value for IC50? Provide the label of your selected option as the answer.
a
